Test system: MDCK
Assay: Apparent permeability from basolateral to apical side in MDCK cells expressing MDR-1 at 10 uM after 90 mins by LC-MS/MS analysis
Format: ADME, cell-based, Canis lupus familiaris
Settings: dog, 1.5 h
parameterMeasured: Papp
A complete answer gives the number followed by the unit.

query: Please look up its Papp: COc1cc(OC)c(/C=C/S(=O)(=O)Nc2ccc(OC)c(N)c2)c(OC)c1
result: 72 ×10⁻⁶ cm/s

----------
System: MDCK
Test: Apparent permeability from apical to basolateral side in MDCK cells expressing MDR-1 at 10 uM after 90 mins by LC-MS/MS analysis
Assay type: ADME, cell-based, Canis lupus familiaris
Conditions: dog, 1.5 h
parameterMeasured: Papp (×10⁻⁶ cm/s)
Give bare numbers, in ×10⁻⁶ cm/s.

query: Form entry - test system: MDCK; read-out: Papp; compound: COc1cc(OC)c(/C=C/S(=O)(=O)Nc2ccc(OC)c(N)c2)c(OC)c1
result: 9.1
